tested on: ACHN renal; assay: NCI tumour cell line growth inhibition, 48 h
Observable: GI50

{"Compound": "Cc1cc2nc3c4cc(Cl)ccc4n(CCN(C)C)c3nc2cc1C", "Study System": "ACHN renal", "Observed Result": "0.66 µM"}

Look at each compound and report its GI50.
1. C=CC(=O)Nc1cccc(-c2nc(SC)nc(Nc3ccccc3OC)c2C#N)c1
2. COc1cc(C(=O)NC2c3ccccc3-c3ccccc32)c(N)cc1OCc1ccccc1
3. C[C@@H]1CC[C@H]2C(COCC3=C(C(F)(F)F)O[C@@H]4O[C@@]5(C)CC[C@H]6[C@H](C)CC[C@@H]3[C@@]46OO5)=C(C(F)(F)F)O[C@@H]3O[C@@]4(C)CC[C@@H]1[C@]32OO4
4. COc1c(C2CC(=O)Nc3c2cnn3Cc2ccco2)cc2c(c1OC)OCO2 (stereo not given)

Result:
1.7 µM
23 µM
0.028 µM
0.833 µM

// input: 7 compounds below; output: GI50 for each
1. CC(=O)c1ccc(Nc2cc(-c3ccccc3)nc3c(O)cccc23)cc1
2. COc1cc2c3c(cccc3c1)C(=O)N(CCN1CCCC1)C2=O
3. CC(=O)OCC1OC(O[C@@H]2C[C@H]3C(C)(C)[C@H](OC(C)=O)CC[C@]3(C)[C@H]3CCC4=C([C@@H](C)C[C@@H](O)[C@H](O)C(C)(C)O)CC[C@@]4(C)[C@@]32C)C(O)C(O)C1O (stereo not given in full)
4. O=C1/C(=C/c2ccc(F)cc2)CCOc2ccc([N+](=O)[O-])cc21
5. COC(=O)C1OC(O[C@H]2CCC3(C)C(CCC4(C)C3CC=C3C5CC(C)(C)CCC5(C(=O)O)CC[C@]34C)C2(C)C)C(O)C(OC2OC(CO)C(O)C(O)C2O)C1O (stereo not given in full)
6. COC1(C(=O)N2Cc3nc(Cl)nc(N[C@H](C)c4cc(N)cc(C(F)(F)F)c4)c3C2)CCOCC1
7. Cc1ccn2c3c(c(C(=O)O)c2c1)C(=O)c1ccccc1C3=O

Result:
1. 20.5 µM
2. 0.764 µM
3. 17.8 µM
4. 28 µM
5. 5.99 µM
6. 18.5 µM
7. > 96.4 µM

Please look at the items below and tell me GI50 for each one, in order.
1. CC(C)(C)OC(=O)n1cc(CNC(=S)Nc2ccccc2)c2ccccc21
2. Cc1cc([C@@H](C)Nc2ccccc2C(=O)O)c2nc(N3CCOCC3)cc(=O)n2c1
3. COc1cc(-n2cc(-c3ccc(Cl)c(Cl)c3)nc2SCc2ccccc2)cc(OC)c1OC
4. NC(N)=N/N=C(/c1ccccc1)c1ccc(F)cc1
5. CNC(=O)c1ccccc1CC1(O)c2ccccc2Oc2ccccc21

Result:
["5.12 µM", "> 10 µM", "> 100 µM", "0.75 µM", "26.2 µM"]

Can you give me GI50 for all of these, one by one?
1. O=C(NNc1nc2c(F)cccc2n2cccc12)c1cnccn1
2. Cc1nn(-c2ccc(S(=O)(=O)[O-])cc2)c([O-])c1N=[N+](C)c1ccc(-c2ccc(N=Nc3ccc4c(S(=O)(=O)[O-])cc(S(=O)(=O)[O-])c(N)c4c3[O-])c([O-])c2)cc1[O-].[Cu+2].[Cu+2].[Na+]
3. C=CC(=O)N[C@H]1C=C(C)c2c(-c3cnc4ccccc4c3)c3c(N)ncnc3n2C1
4. Cc1ccc2c(C(C[N+](=O)[O-])c3cccs3)c(-c3ccccc3)[nH]c2c1 (stereo not given)
5. C#Cc1cnc(=O)n(C2CC(O)C(CO)O2)c1 (stereo not given)
6. COc1cc2ncn(-c3cc(OCc4ccccc4Cl)c(C(N)=O)s3)c2cc1OC
7. C=C1CCC2C(/C=C(\C)CCC1O)OC(=O)C2C (stereo not given)

Result:
0.25 µM
> 100 µM
0.249 µM
2.15 µM
> 100 µM
1.58 µM
> 100 µM

Task: // fetch GI50 given entry CCCCCCCCCC[C@@H](O)[C@H]1CC[C@H]([C@H]2CC[C@H]([C@H](O)CCCCCCCCCC[C@@H]3CC(CC(C)=O)C(=O)O3)O2)O1 (stereo not given in full)
Result: 0.422 µM

====

test system: SK-MEL-2 melanoma; assay: NCI tumour cell line growth inhibition, 48 h
Observable: TGI (µM)
Give bare numbers, in µM.

// solved cases for TGI follow
{"Compound": "c1cc(-c2cnc(-c3ccc4c(c3)CCCO4)o2)ccn1", "Uom": "µM", "TGI": 24.8}
{"Compound": "COC(=O)C1(Cc2ccccc2)Cc2cc3c(cc2C1=O)CCC3 (centres undefined)", "Uom": "µM", "TGI": 53.1}
{"Compound": "O=C1/C(=C/c2ccc(F)cc2)CCOc2ccc([N+](=O)[O-])cc21", "Uom": "µM", "TGI": 11.6}

Task: Identify TGI associated with the compound CC(=O)OCC1OC(O[C@@H]2C[C@H]3C(C)(C)[C@H](OC(C)=O)CC[C@]3(C)[C@H]3CCC4=C([C@@H](C)C[C@@H](O)[C@H](O)C(C)(C)O)CC[C@@]4(C)[C@@]32C)C(O)C(O)C1O (some centres undefined)
Result: 30.3

====

system: U251 CNS; experiment: NCI tumour cell line growth inhibition, 48 h
Please go through the items and note down their TGI.

{"Molecule": "Cc1c(S(=O)(=O)c2ccccc2)c(N)n(Cc2ccccc2)c1C", "TGI": "> 100 µM"}
{"Molecule": "CCOc1ccc(NC(=O)CC2Sc3ccccc3NC2=O)cc1 (stereo not given)", "TGI": "> 100 µM"}

Hello, I would appreciate it if you could give TGI for each entry below.
1. Cc1c(/C=N\NC(=S)N2CCN(C(=S)N/N=C\c3c(C)n(C)n(-c4ccccc4)c3=O)CC2)c(=O)n(-c2ccccc2)n1C
2. CN1CCN(CC#Cc2cccc(C(=O)c3cnn(-c4ccc(F)cc4)c3N)c2)CC1
3. COc1ccc(Nc2c(C#N)c3n(c4ccccc24)c2ccccc2[n+]3C)cc1OC

Result:
1. > 100 µM
2. > 25 µM
3. 17.9 µM

====

system: NCI-H460 lung
Can you answer with just one of these options? active, inactive

{"Molecule": "Cc1nn(-c2ccc(F)cc2)c2ncnc(Nc3ccc(NC(=O)Nc4ccc(Cl)c(C(F)(F)F)c4)cc3)c12", "Assigned Class": "inactive"}
{"Molecule": "COc1ccc(-c2nn(-c3cccc(Cl)c3)cc2C2CC(c3ccccc3)=NN2C(C)=O)cc1 (stereo not given)", "Assigned Class": "inactive"}
{"Molecule": "O=C(c1cccs1)c1c(C(F)(F)F)n([O-])c2ccccc2[n+]1=O", "Assigned Class": "active"}
{"Molecule": "NC(CO)Cc1cnc[nH]1 (stereo not given)", "Assigned Class": "inactive"}

Task: Which outcome was assigned to `Cc1cc([C@@H](C)Nc2ccccc2C(=O)O)c2nc(N3CCOCC3)cc(=O)n2c1` in this test?
Result: inactive

====

test system: A549 NSCLC; assay: NCI tumour cell line growth inhibition, 48 h
Observable: GI50

{"Input Smiles": "Fc1cccc(COc2ccc(Nc3ncncc3C#Cc3ccccc3)cc2Cl)c1", "Study System": "A549 NSCLC", "Observed Result": "> 25 µM"}
{"Input Smiles": "Oc1ccccc1/C=N/Nc1ccc2ccccc2n1", "Study System": "A549 NSCLC", "Observed Result": "5.33 µM"}
{"Input Smiles": "CC1(C)N=C(N)N=C(N)N1c1ccc(CCCCc2ccc(S(=O)(=O)F)cc2)cc1", "Study System": "A549 NSCLC", "Observed Result": "0.623 µM"}
{"Input Smiles": "COc1cc2c3c(cccc3c1)C(=O)N(CCN1CCCC1)C2=O", "Study System": "A549 NSCLC", "Observed Result": "1.91 µM"}

Go through the list and state GI50 for each entry.
1. CC(=O)c1ccc(Nc2cc(-c3ccccc3)nc3c(O)cccc23)cc1
2. NC(N)=N/N=C(/c1ccccc1)c1ccc(F)cc1
3. CCOc1ccc(S(=O)(=O)/N=C2\C=C(SCC(=O)O)C(=O)c3ccccc32)cc1
4. O=C(c1ccc2ccccc2c1)c1c(C(F)(F)F)n([O-])c2cc(Cl)c(Cl)cc2[n+]1=O
5. O=C(c1cccs1)c1c(C(F)(F)F)n([O-])c2ccccc2[n+]1=O

Result:
30.6 µM
0.512 µM
12.6 µM
1.63 µM
1.36 µM

Task: Return the recorded GI50 value; entry: `CN(C)CC(=O)N1CCC(c2ccc(NC(=O)c3ncc(C#N)[nH]3)c(C3=CCCCC3)c2)CC1`
Result: 5 µM

====

test system: HCT-116 colon; test: NCI tumour cell line growth inhibition, 48 h
Observable: TGI

Known results for compounds:
{"Compound": "COc1c(C2CC(=O)Nc3c2cnn3Cc2ccco2)cc2c(c1OC)OCO2 (stereo unspecified)", "TGI": "> 100 µM"}
{"Compound": "c1sc(NC2=NCCO2)c2c1CCCC2", "TGI": "> 100 µM"}
{"Compound": "N#Cc1c(-c2cccs2)c2c(=S)[nH]c(=S)[nH]c2[nH]c1=S", "TGI": "> 100 µM"}
{"Compound": "CC1(C)CC2(C)CC1CC2O (stereo unspecified)", "TGI": "> 100 µM"}

Hi team, please reply with TGI for each item in this list.
1. CCN(CC)CCOC(c1cc(OC)ccc1OC)c1ccc2n1-c1ccccc1OC2 (stereo unspecified)
2. N#Cc1c(N)[nH]c(=S)c(C#N)c1-c1cccc(Cl)c1

Result:
1. > 100 µM
2. 60.6 µM
